# assay: Volume of distribution at steady state in mouse at 2 mg/kg, iv
# Type: ADME, organism-based
# condition_context: in vivo, read-out: Vdss
measured_metric: Vd (L/kg)
One number for each entry, in L/kg.

Example molecules with recorded Vd:
1. CCc1nc2ccc(F)cn2c1C(=O)NCc1ccc(OCc2ccc(OC(F)(F)F)cc2)cc1 | 3.85
2. CCc1nc2ccc(Cl)cn2c1C(=O)NCc1ccc(N2CCC(Oc3ccc(Cl)cc3)CC2)cc1 | 1.34
3. CCc1nc2ccc(Cl)cn2c1C(=O)NCc1ccc(N2CCC(Oc3ccc(C(F)(F)F)cc3)CC2)cc1 | 2.39

Problem: Look up Vd for this molecule: CCc1nc2cc(Cl)ccn2c1C(=O)NCc1ccc(OCc2ccc(OC(F)(F)F)cc2)cc1
Solution: 4.68

====

# assay: AUC (0 to infinity) in mouse at 10 mg/kg, po
# Format: ADME, organism-based
# Set-up: dose 10 mg/kg, route oral, time infinity
# condition_context: in vivo
For each of the compounds below, state its AUC(0-inf).
Give bare numbers, in ng·h/mL.

Worked cases, AUC(0-inf) given:
1) CCc1nc2ccc(F)cn2c1C(=O)NCc1ccc(OCc2ccc(OC(F)(F)F)cc2)cc1 | 28200
2) CCc1nc2cc(Cl)ccn2c1C(=O)NCc1ccc(OCc2ccc(OC(F)(F)F)cc2)cc1 | 11500
3) CCc1nc2ccc(Cl)cn2c1C(=O)NCc1ccc(N2CCC(Oc3ccc(Cl)cc3)CC2)cc1 | 30300

Problem: Endpoint output: AUC(0-inf) of CCc1nc2ccc(Cl)cn2c1C(=O)NCc1ccc(N2CCC(Oc3ccc(C(F)(F)F)cc3)CC2)cc1 . Value?
Solution: 48900

====

Would you mind telling me the reported Cmax of each entry?
# assay: Cmax in mouse at 10 mg/kg, po
# Assay type: ADME, organism-based
# Design: dose 10 mg/kg, route oral
# condition_context: in vivo
One number for each entry, in ng/mL.

Use the examples below as a reference point.
1) CCc1nc2ccc(Cl)cn2c1C(=O)NCc1ccc(N2CCC(Oc3ccc(Cl)cc3)CC2)cc1 | 3540
2) CCc1nc2ccc(F)cn2c1C(=O)NCc1ccc(OCc2ccc(OC(F)(F)F)cc2)cc1 | 2620
3) CCc1nc2cc(Cl)ccn2c1C(=O)NCc1ccc(OCc2ccc(OC(F)(F)F)cc2)cc1 | 1640

Problem: Which measured Cmax value corresponds to CCc1nc2ccc(Cl)cn2c1C(=O)NCc1ccc(N2CCC(Oc3ccc(C(F)(F)F)cc3)CC2)cc1 ?
Solution: 4100

====

Provide the reported bioavailability of each item.
# assay: Oral bioavailability in mouse at 10 mg/kg
# Assay type: ADME, organism-based
# condition_context: in vivo
Give bare numbers, in %.

1) CCc1nc2ccc(F)cn2c1C(=O)NCc1ccc(OCc2ccc(OC(F)(F)F)cc2)cc1 | 80.5
2) CCc1nc2ccc(Cl)cn2c1C(=O)NCc1ccc(N2CCC(Oc3ccc(Cl)cc3)CC2)cc1 | 51.4
3) CCc1nc2ccc(Cl)cn2c1C(=O)NCc1ccc(N2CCC(Oc3ccc(C(F)(F)F)cc3)CC2)cc1 | 65.6

Problem: I'd like to know its bioavailability. The molecule in question is CCc1nc2cc(Cl)ccn2c1C(=O)NCc1ccc(OCc2ccc(OC(F)(F)F)cc2)cc1
Solution: 53.4
